Target: G2019S LRRK2 (Homo sapiens, UniProt Q5S007, G2019S)
Experiment: DiscoveRx KINOMEscan binding constant (Kd)
Parameters: purchased DiscoveRx (KINOMEscan service); host or cells: E. coli BL21-derived host (T7 phage) or HEK-293
Details: numeric value
Sequence (Q5S007 whole entry G2019S): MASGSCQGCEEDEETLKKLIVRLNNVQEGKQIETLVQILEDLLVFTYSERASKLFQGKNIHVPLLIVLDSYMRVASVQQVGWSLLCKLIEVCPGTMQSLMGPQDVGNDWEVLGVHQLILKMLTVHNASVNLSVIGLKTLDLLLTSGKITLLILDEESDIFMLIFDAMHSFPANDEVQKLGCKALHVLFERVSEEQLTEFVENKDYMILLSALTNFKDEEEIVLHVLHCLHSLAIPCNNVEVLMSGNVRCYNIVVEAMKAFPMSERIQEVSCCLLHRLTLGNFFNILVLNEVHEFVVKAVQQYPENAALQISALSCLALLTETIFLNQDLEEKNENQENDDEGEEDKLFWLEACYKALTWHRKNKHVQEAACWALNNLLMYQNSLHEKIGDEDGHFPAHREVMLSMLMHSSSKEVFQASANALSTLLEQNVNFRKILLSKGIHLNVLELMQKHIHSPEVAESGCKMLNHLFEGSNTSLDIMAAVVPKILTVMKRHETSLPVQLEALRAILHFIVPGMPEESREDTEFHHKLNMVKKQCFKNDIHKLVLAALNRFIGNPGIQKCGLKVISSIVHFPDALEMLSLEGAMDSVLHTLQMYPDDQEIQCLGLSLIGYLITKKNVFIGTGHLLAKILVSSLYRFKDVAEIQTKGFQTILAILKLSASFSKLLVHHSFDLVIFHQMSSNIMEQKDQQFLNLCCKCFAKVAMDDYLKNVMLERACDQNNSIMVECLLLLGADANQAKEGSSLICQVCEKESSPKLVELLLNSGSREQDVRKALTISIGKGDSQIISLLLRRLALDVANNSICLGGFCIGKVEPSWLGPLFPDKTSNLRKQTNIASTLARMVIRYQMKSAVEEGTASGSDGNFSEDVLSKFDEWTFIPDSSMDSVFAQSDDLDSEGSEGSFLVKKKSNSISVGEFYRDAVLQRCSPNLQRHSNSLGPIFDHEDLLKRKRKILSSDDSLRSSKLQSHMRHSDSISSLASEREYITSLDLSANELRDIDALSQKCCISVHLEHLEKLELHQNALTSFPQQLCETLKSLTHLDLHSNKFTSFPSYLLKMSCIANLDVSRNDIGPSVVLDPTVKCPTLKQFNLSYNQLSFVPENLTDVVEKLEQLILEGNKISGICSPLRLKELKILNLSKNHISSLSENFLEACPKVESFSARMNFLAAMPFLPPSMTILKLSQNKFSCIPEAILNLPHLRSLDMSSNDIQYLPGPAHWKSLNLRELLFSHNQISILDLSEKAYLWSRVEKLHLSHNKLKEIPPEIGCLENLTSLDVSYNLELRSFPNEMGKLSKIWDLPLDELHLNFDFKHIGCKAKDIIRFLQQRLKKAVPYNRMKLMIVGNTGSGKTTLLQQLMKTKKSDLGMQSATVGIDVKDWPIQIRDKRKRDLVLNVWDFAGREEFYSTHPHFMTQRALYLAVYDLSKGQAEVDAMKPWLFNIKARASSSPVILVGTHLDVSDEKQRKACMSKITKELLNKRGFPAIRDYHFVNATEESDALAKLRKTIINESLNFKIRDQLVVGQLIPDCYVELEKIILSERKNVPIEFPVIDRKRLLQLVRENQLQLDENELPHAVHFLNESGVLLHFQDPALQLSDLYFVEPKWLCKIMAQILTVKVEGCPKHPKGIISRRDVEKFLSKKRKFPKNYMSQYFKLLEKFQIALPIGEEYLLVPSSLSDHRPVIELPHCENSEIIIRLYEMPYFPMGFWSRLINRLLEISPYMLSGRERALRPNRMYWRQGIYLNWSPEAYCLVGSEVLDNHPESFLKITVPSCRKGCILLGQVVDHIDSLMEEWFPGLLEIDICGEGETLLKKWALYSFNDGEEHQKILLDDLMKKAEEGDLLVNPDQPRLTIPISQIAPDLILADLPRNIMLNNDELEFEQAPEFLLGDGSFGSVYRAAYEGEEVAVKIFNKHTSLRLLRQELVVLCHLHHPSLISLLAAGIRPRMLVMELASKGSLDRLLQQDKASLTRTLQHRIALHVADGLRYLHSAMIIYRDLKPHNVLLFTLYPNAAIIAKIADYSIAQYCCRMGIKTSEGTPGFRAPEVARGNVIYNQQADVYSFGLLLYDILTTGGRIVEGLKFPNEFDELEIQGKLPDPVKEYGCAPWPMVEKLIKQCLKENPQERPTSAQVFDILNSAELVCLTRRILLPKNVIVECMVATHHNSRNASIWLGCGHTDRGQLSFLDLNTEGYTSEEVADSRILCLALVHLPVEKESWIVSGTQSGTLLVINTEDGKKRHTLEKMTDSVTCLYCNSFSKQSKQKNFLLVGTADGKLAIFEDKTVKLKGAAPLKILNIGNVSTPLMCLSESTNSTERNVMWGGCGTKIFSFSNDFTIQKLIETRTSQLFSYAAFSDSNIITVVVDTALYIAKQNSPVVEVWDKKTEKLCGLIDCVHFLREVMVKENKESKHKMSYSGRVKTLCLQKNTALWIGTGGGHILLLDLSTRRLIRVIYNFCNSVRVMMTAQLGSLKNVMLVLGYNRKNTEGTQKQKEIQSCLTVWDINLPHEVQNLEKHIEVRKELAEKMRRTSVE
Readout type: Kd (µM)

(P) O=C1Nc2ccc(OCCF)cc2/C1=C/c1cnc(C2CCOCC2)[nH]1
(Q) COCCc1ncc(/C=C2\C(=O)Nc3ccc(OC)cc32)[nH]1
(R) COc1ccc2c(c1)/C(=C/c1cnc(-c3c(F)cccc3F)[nH]1)C(=O)N2
(S) CC(C)Oc1ccc2c(c1)/C(=C/c1nnc(C(C)C)[nH]1)C(=O)N2
Req: Rank items: key Kd, increasing. Answer format: the labels, ordered as requested.
Resp: P, R, Q, S
(P: 0.0475 µM, R: 0.15 µM, Q: 0.45 µM, S: 12.5 µM)

(A) C/C(=C1/C(=O)Nc2cc(F)c(OC(C)C)cc21)c1cnc(N2CCOCC2)[nH]1
(B) CC(C)Oc1ccc2c(c1)/C(=C/c1cnc(C(C)C)[nH]1)C(=O)N2
Req: Among A and B , whose measured Kd is the smaller figure? Give the label under which the chosen entry appears.
Resp: B
(B: 0.0165 µM, A: 0.057 µM)

(1) O=C1Nc2ccc(O)cc2/C1=C/c1cnc(C2CCOCC2)[nH]1
(2) C/C(=C1/C(=O)Nc2ccc(OC(C)C)cc21)c1cnc(N2CCOCC2)[nH]1
(3) CC(C)Oc1ccc2c(c1)/C(=C/c1cnc(N(C)C)[nH]1)C(=O)N2
(4) CC(C)Oc1ccc2c(c1)/C(=C/c1ncc(C3CCOCC3)[nH]1)C(=O)N2
Req: Could you please order the items by Kd, going from the lowest number to the highest? Answer format: the labels, ordered as requested.
Resp: 2, 3, 1, 4
(2: 0.022 µM, 3: 0.032 µM, 1: 0.068 µM, 4: 0.123 µM)

----------
Target: G2019S LRRK2 (Homo sapiens, UniProt Q5S007, G2019S)
Assay: G2019S LRRK2 inhibition (Invitrogen SelectScreen / TR-FRET biochemical assay)
Conditions: numeric value
Sequence (Q5S007 969-2527 G2019S): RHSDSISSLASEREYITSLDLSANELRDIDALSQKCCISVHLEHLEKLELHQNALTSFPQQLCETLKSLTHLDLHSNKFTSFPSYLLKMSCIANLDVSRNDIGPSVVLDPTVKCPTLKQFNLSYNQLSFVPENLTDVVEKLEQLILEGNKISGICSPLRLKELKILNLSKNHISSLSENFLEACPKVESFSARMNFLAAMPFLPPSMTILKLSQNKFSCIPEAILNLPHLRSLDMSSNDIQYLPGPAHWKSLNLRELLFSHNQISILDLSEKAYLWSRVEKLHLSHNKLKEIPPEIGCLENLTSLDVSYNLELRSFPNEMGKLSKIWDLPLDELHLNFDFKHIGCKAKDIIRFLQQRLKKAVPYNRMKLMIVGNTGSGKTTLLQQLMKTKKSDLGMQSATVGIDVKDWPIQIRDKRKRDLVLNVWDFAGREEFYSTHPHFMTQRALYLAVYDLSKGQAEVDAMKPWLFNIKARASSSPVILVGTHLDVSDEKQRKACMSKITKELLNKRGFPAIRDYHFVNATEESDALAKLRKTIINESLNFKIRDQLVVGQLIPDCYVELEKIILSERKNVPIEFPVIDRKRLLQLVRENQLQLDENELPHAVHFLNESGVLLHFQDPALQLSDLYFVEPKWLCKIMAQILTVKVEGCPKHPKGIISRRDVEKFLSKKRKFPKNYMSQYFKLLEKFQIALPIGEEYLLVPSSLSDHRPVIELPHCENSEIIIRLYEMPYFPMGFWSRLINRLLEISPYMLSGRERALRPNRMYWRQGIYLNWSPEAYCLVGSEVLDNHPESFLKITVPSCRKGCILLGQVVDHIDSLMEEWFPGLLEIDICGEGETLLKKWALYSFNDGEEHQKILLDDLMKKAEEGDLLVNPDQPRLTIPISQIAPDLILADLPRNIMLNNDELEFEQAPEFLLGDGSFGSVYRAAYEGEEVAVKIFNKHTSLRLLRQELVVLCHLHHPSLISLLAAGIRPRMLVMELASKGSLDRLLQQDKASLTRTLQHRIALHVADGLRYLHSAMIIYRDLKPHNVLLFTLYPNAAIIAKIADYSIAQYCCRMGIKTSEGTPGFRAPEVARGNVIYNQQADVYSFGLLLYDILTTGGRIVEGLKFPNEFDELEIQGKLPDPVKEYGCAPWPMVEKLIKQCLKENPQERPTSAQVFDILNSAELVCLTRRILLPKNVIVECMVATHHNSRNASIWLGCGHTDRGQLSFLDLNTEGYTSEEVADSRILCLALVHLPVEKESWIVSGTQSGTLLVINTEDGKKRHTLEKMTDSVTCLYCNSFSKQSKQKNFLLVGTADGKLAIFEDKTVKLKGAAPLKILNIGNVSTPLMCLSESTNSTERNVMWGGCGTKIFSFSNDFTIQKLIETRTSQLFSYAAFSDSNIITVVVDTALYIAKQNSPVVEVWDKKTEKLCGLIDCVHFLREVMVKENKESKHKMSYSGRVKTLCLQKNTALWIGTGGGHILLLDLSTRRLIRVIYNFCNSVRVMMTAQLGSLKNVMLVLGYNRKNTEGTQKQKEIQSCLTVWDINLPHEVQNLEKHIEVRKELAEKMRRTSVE
pIC50: −log10 of the molar value.
Readout type: pIC50

Sample answers from the record:
>  <Compound>
COc1ccc2c(c1)/C(=C/c1cnc(C3CCOCC3)[nH]1)C(=O)N2 [Compound 18]

>  <pIC50>
8.26

$$$$
>  <Compound>
Cc1ncc(/C=C2\C(=O)Nc3ccc(F)cc32)[nH]1 [Compound 3]

>  <pIC50>
7.42

$$$$
>  <Compound>
COc1ccc2c(c1)/C(=C/c1cnc(C(C)(C)C)[nH]1)C(=O)N2 [Compound 19]

>  <pIC50>
7.36

$$$$

(A) O=C1Nc2ccccc2/C1=C\c1cnc2ccccc2c1 [Compound 8]
(B) COc1ccc2c(c1)/C(=C/c1cnc(C)[nH]1)C(=O)N2 [Compound 4]
Req: Param pair: A , B . Output: the one whose pIC50 is numerically greater. Give the label under which the chosen entry appears.
Resp: B
(B: 8.16, A: 6.06)

----------
Target: G2019S LRRK2 (Homo sapiens, UniProt Q5S007, G2019S)
Assay: DiscoveRx KINOMEscan binding constant (Kd)
Parameters: purchased DiscoveRx (KINOMEscan service); host or cells: E. coli BL21-derived host (T7 phage) or HEK-293
Details: numeric value
pKd: −log10 of the molar value.
Readout type: pKd

>  <Structure as smiles>
O=C1Nc2ccc(Cl)cc2/C1=C/c1cnc(C2CCOCC2)[nH]1

>  <pKd>
7.23

$$$$
>  <Structure as smiles>
CC(C)Oc1cc(F)c2c(c1)/C(=C/c1cnc(N3CCOCC3)[nH]1)C(=O)N2

>  <pKd>
7.17

$$$$
